Catalogue of melting point readings, one per entry.

COCc1cc(-c2nnc3c4ccccc4c(OCc4ncnn4C)nn23)no1
206 to 208 °C
Cc1nc2cc(C(C)C(=O)O)ccc2o1 (stereo not given)
115 to 117 °C
O=C(O)c1nn(Cc2ccccc2)c2c1CCc1cc(OCc3cncnc3)ccc1-2
236 to 237 °C
CC(C)(C)NCCOP1Oc2c(cc(C(C)(C)C)cc2C(C)(C)C)Cc2cc(C(C)(C)C)cc(C(C)(C)C)c2O1
189 to 192 °C
CC(C)(C)c1cc(CCc2ccccc2NC(=O)N2CCCCCC2)cc(C(C)(C)C)c1O
136 to 138 °C

Inquiry: Give me measured melting point, please, for this compound: Fc1ccc(CN2CCN(C3CC=C(c4ccc(F)cc4)CC3)CC2)cc1 (stereo not given)
Reply text: 109 to 110 °C

Inquiry: Give me measured melting point, please, for this compound: CN(c1ccccc1)c1cc(NCc2ccco2)c(C(=O)O)cc1S(N)(=O)=O
Reply text: 145 °C

Inquiry: Give me measured melting point, please, for this compound: CC(=O)N1CCN(c2c([N+](=O)[O-])cc([N+](=O)[O-])cc2C(F)(F)F)CC1
Reply text: 126 °C

Inquiry: Give me measured melting point, please, for this compound: O=C(Nc1cc(Cl)c([N+](=O)[O-])cc1O)c1ccc(Cl)c(Cl)c1
Reply text: 263 to 265 °C

Inquiry: Give me measured melting point, please, for this compound: COCn1cc(C(=O)c2ccccc2)c(-c2cccc(Cl)c2)n1
Reply text: 106 to 108 °C

Inquiry: Give me measured melting point, please, for this compound: COc1ccc(-c2nc(C(C)=O)oc2-c2ccc(OC)cc2)cc1
Reply text: 139 to 140 °C

Inquiry: Give me measured melting point, please, for this compound: O=S(=O)(c1cc(F)ccc1F)N1CCNc2ncc(I)cc21
Reply text: 187 to 188 °C

Inquiry: Give me measured melting point, please, for this compound: CC1(C)OC(=O)Nc2ccc(-c3cccc([N+](=O)[O-])c3)cc21
Reply text: 244 to 245 °C

Inquiry: Give me measured melting point, please, for this compound: CCCn1cc2c(C3C(=O)Nc4ccc(Br)cc43)nc(NCCCN)nc2n1 (stereo not given)
Reply text: > 300 °C

Inquiry: Give me measured melting point, please, for this compound: COc1cc2ncc(C#N)c(Nc3ccc(C)cc3)c2cc1OC
Reply text: 128 to 130 °C

Inquiry: Give me measured melting point, please, for this compound: COc1cc2ncnc(Oc3cccc(Cl)c3)c2cc1OC
Reply text: 152 to 153 °C

Inquiry: Give me measured melting point, please, for this compound: OCC1c2cc(Cl)ccc2Oc2ccc(Cl)cc21
Reply text: 134 to 136 °C

Inquiry: Give me measured melting point, please, for this compound: CC(Oc1ccc2nc(N)sc2c1)c1c(F)ccc(Cl)c1F (stereo not given)
Reply text: 160 °C

Inquiry: Give me measured melting point, please, for this compound: CCn1cc(C=CC(N)=O)c([N+](=O)[O-])n1
Reply text: 210 to 212 °C

Inquiry: Give me measured melting point, please, for this compound: Cc1ccc(C(=O)c2cnn3c(-c4cccc(N(C)C(=O)C5CC5)c4)ccnc23)cc1
Reply text: 189 to 190 °C

----------
Readout Label: melting point

COCC(=O)[C@H](Cc1ccccc1)NC(=O)[C@H](CC(C)C)NC(=O)OCc1ccccc1
87 to 92 °C
COc1c(Cl)ccc(-c2cc(N)c(Cl)c(C(=O)NOCc3ccco3)n2)c1F
161 to 164 °C

Continue with the compound presented below.
Inquiry: Give me measured melting point, please, for this compound: ClCCCn1c2ccccc2c2cc(-c3nc(C4CC4)no3)ncc21
Reply text: 165 to 169 °C

----------
Readout Label: melting point

Worked examples, 3 molecules total:
Nc1cc(Cl)nc(SC/C=C/C(=O)N2CCCCC2)n1
159 to 163 °C
c1ccc(COc2cccnc2Cn2ccnc2)cc1
73 to 74 °C
CCCCOCC(O)COc1ccc(-c2nc(OC)nc(-c3ccc(OCC(O)COCCCC)cc3O)n2)c(O)c1 (configuration not stated)
98 to 99 °C

Inquiry: Give me measured melting point, please, for this molecule: COc1ccc(S(=O)(=O)N2C(=O)C(O)(c3ccccc3OC)c3cc(Cl)c(C)cc32)c(OC)c1 (configuration not stated)
Reply text: 207 to 208 °C

Inquiry: Give me measured melting point, please, for this molecule: COC1CCc2[nH]c3ccccc3c2C1 (configuration not stated)
Reply text: 105 °C

Inquiry: Give me measured melting point, please, for this molecule: Cc1cc2oc(N(N)CCC#N)nc2c(C)c1C
Reply text: 143 to 144 °C

Inquiry: Give me measured melting point, please, for this molecule: Cc1nc(-c2cccc(C(F)(F)F)c2)ccc1C=O
Reply text: 61 to 63 °C

Inquiry: Give me measured melting point, please, for this molecule: O=C(NCCO)c1ccc(C(=O)NCCO)cc1
Reply text: 227 to 229 °C

----------
Catalogue of melting point readings, one per entry.

CCn1c(C)c(C2(N(c3ccccc3)c3ccccc3)OCc3cccnc32)c2ccccc21 (stereo not given)
132 to 136 °C
COc1ccc(C(=O)Nc2ccccc2)cc1NS(=O)(=O)c1cccc2ccccc12
212 to 213 °C
Cc1ccc(NC(=O)N2CCC(=C(F)c3cccc(Oc4ccc(C(F)(F)F)cn4)c3)CC2)cn1
158 to 160 °C
CCC(CC)c1ccc(Cl)c2nc3n(c12)CCCN3c1cnc(N(C)C)cc1C
228 to 230 °C
O=[N+]([O-])c1cc(Cl)cc(CCc2ccccn2)c1O
97 to 100 °C

Continue with the compound presented below.
Inquiry: Give me measured melting point, please, for this compound: CC(=O)Nc1cc(Br)nn1-c1c(Cl)cc(C(F)(F)F)cc1Cl
Reply text: 180 to 187 °C

----------
Catalogue of melting point readings, one per entry.

Worked examples, 2 compounds total:
O=c1c(CO)c(-c2ccc(O)cc2)oc2ccccc12
234 to 235 °C
Cc1cc(C)cc(C(N)=O)c1
148 to 149 °C

Inquiry: Give me measured melting point, please, for this compound: CC1CC2C(=CCC3(C)C(C(=O)CCl)=CCC23)C2(C)C=CC(=O)C=C12 (stereo unspecified)
Reply text: 164 °C

Inquiry: Give me measured melting point, please, for this compound: ON=C1CCCCC1=Cc1ccccc1
Reply text: 114 to 115 °C

----------
Readout Label: melting point

Worked examples, 3 compounds total:
N#Cc1cncc(-c2ccc(OCc3ccccc3)cc2)c1Nc1ccc2[nH]ccc2c1
163 to 165 °C
C(=Cc1ccc(-c2nc(-c3ccccc3)no2)cc1)c1ccc(-c2nc3ccccn3n2)cc1
287 °C
O=C(Nc1nnc(SCc2ccccc2)s1)C1CC1
182 to 184 °C

Inquiry: Give me measured melting point, please, for this compound: COC1C(NC(=O)C(F)(F)F)CC(OC2CC(O)(CO)Cc3c(O)c4c(c(O)c32)C(=O)c2ccccc2C4=O)OC1C (stereo not given)
Reply text: 262 to 263 °C

Inquiry: Give me measured melting point, please, for this compound: Cc1cccc([N+](=O)[O-])c1CC(CC(=O)O)C(=O)O (stereo not given)
Reply text: 172 to 176 °C

----------
Readout Label: melting point

CCCc1cc(C(O)(CC)CC)ccc1-c1cc(OCc2ccc(CO)c(CO)c2)ccc1CC
101 °C
CC(C)C(O)(C#Cc1ccsc1)c1cncnc1 (stereo unspecified)
102 to 105 °C
CN(C)c1ncc(-c2cccc(N)c2)cn1
116 to 117 °C
Cc1cscc1-c1nc(-c2c(F)cccc2Cl)nn1C
153 to 155 °C
Cn1cc(C=CC(=O)NCN2CCCC2)c([N+](=O)[O-])n1
180 to 183 °C

Inquiry: Give me measured melting point, please, for this molecule: Cc1nc(-c2ccc(C(F)(F)F)cc2)sc1COc1ccc(CC(=O)O)cc1Cl
Reply text: 126 to 127 °C

Inquiry: Give me measured melting point, please, for this molecule: NC(=O)CCC(=O)c1ccccc1
Reply text: 122 to 124 °C

Inquiry: Give me measured melting point, please, for this molecule: N#Cc1ccc(C=O)c(N2CCCC2)c1
Reply text: 121 °C

Inquiry: Give me measured melting point, please, for this molecule: Nc1cc(C(=O)O)cc(OCc2ccccc2)c1-c1ccccc1
Reply text: 161 to 162 °C

Inquiry: Give me measured melting point, please, for this molecule: CN(C)C(=O)c1ccccc1N
Reply text: 53 to 54 °C

Inquiry: Give me measured melting point, please, for this molecule: CCCCCCCCCCCCCCCCCC(=O)Oc1ccccc1C(=O)OCC
Reply text: 50.5 to 53.5 °C

Inquiry: Give me measured melting point, please, for this molecule: COc1ccc(-c2ccccc2-c2ccc(S(C)(=O)=O)cc2)cc1F
Reply text: 136 to 137 °C

----------
Catalogue of melting point readings, one per entry.

Worked examples, 5 compounds total:
COc1cc(N(Cc2cccnc2)c2ccc(C(=O)O)cc2)ccc1OC(F)F
184 to 185 °C
CN(C)C(=O)Nc1ccc(-c2c[nH]c(=O)cn2)cc1
256 to 260 °C
Cn1c(C=NO)cnc1[N+](=O)[O-]
203 to 205 °C
CC(C)(C)OC(=O)N1CCC[C@@H](OC(=O)c2ccc(C(=O)c3ccccc3)cc2)[C@H](NC(=O)c2ccc(OC(C)(C)C)cc2)C1
145 to 148 °C
COc1ccc(C(C)(C)C)cc1C=Cc1ccc(CCl)cc1
103 to 104 °C

Inquiry: Give me measured melting point, please, for this compound: COc1ccc(NC2=NN(c3cccc(C(F)(F)F)c3)CC2)cc1
Reply text: 127 to 128 °C

Inquiry: Give me measured melting point, please, for this compound: Clc1ncc(OC[C@@H]2CCCN2)cc1-c1ccccc1
Reply text: 75 to 80 °C

Inquiry: Give me measured melting point, please, for this compound: C=CCNS(=O)(=O)c1ccc(Br)cc1
Reply text: 63 to 65 °C

Inquiry: Give me measured melting point, please, for this compound: COCCOc1ccc(CN(C(=O)C2CCCc3c(O)cccc32)c2ccc(C(C)C)cc2)cn1 (configuration not stated)
Reply text: 153 °C

Inquiry: Give me measured melting point, please, for this compound: COC(=O)c1cc(C)nc(Nc2ccc(C(C)C)cc2Br)n1
Reply text: 75 to 76 °C
